- Tested on: Enterococcus faecalis
- Protocol text: Antibacterial activity against Enterococcus faecalis ATCC 29212 by broth microdilution method
- Type: functional
- Condition details: Enterococcus faecalis, ATCC 29212; read-out: MIC
Measured property: MIC

Field: example entries. Status: answers known.
{"columns": ["Compound", "Subject of test", "MIC"],
 "data": [
  ["COC1CCCCCCCCC[C@@H](C)NC(=O)/C=C/C1=O (single isomer, unassigned; diastereomer 2)", "Enterococcus faecalis", "2 µg/mL"],
  ["CO[C@H]1CCCCCCCCC[C@@H](C)OC(=O)C2CC2C1=O (mixture of isomers)", "Enterococcus faecalis", "> 64 µg/mL"],
  ["CO[C@H]1CCCCCCCCC[C@@H](C)OC(=O)/C(C)=C/C1=O", "Enterococcus faecalis", "> 64 µg/mL"]
]}

Let us examine a further case.
IN: Fill in the recorded MIC for this compound, with Enterococcus faecalis as test system: "C[C@@H]1CCCCCCCCC[C@H](OC(=O)CCC(=O)OC(C)(C)C)C(=O)c2[nH]ncc2C(=O)O1"
OUT: > 64 µg/mL

====

- System: Haemophilus influenzae
- Protocol text: Antibacterial activity against efflux knock-out Haemophilus influenzae LS2 by broth microdilution method
- Format: functional
- Condition details: Haemophilus influenzae, LS2; read-out: MIC
# Lookup of reported MIC keyed by entry
Your answer should be a plain number; it is taken to be in µg/mL.

Record excerpt, results attached:
{"columns": ["Compound", "MIC, µg/mL"],
 "data": [
  ["CC(=O)O[C@H]1CCCCCCCCC[C@@H](C)OC(=O)/C=C/C1=O", 4],
  ["C[C@@H]1CCCCCCCCC[C@H](O)C(=O)CC(SCC(F)(F)F)C(=O)O1 (stereo partly specified)", 2]
]}

Please find the next compound below.
IN: What value of measured MIC is listed for "CO[C@H]1CCCCCCCCC[C@@H](C)OC(=O)CCC1=O" ?
OUT: 64

====

- System: Escherichia coli
- Protocol text: Antibacterial activity against Escherichia coli ATCC 25922 by broth microdilution method
- Format: functional
Reported MIC values for the following compounds.

{"columns": ["Compound", "Subject of test", "MIC"],
 "data": [
  ["CC(=O)N(CCOc1ccccc1)C1CC(=O)[C@@H](OC(=O)CCC(=O)OC(C)(C)C)CCCCCCCCC[C@@H](C)OC1=O (some centres undefined)", "Escherichia coli", "> 32 µg/mL"],
  ["C[C@@H]1CCCCCCCCC[C@H](O)C(=O)/C=C/C(=O)O1", "Escherichia coli", "> 32 µg/mL"]
]}

IN: MIC lookup needed for C[C@@H]1CCCCCCCCC[C@H](OC(=O)CCC(=O)OC(C)(C)C)C(=O)CC(N2CCN(C)CC2)C(=O)O1 (some centres undefined) , thanks.
OUT: > 32 µg/mL

====

- System: Staphylococcus aureus
- Protocol text: Antibacterial activity against methicillin-resistant Staphylococcus aureus Sa2 by broth microdilution method
- Type: functional
- Condition details: Staphylococcus aureus, Sa2; read-out: MIC
Measured property: MIC (µg/mL)
Numeric only. Scale: µg/mL

Solved cases below.
{"columns": ["Compound", "Unit of measurement", "Measured"],
 "data": [
  ["C[C@@H]1CCCCCCCCC[C@H](OC(=O)CCC(=O)OC(C)(C)C)C(=O)/C=C/C(=O)O1", "µg/mL", 0.5],
  ["CO[C@H]1CCCCCCCCC[C@@H](C)OC(=O)C(Sc2ccccc2)CC1=O (some centres undefined)", "µg/mL", 2],
  ["C[C@@H]1CCCCCCCCC[C@H](OC(=O)CCC(=O)O)C(=O)/C=C/C(=O)O1", "µg/mL", 2],
  ["CC(=O)O[C@H]1CCCCCCCCC[C@@H](C)OC(=O)/C=C/C1=O", "µg/mL", 0.5],
  ["C[C@@H]1CCCCCCCCC[C@H](O)C(=O)CC(SCC(F)(F)F)C(=O)O1 (some centres undefined)", "µg/mL", 1]
]}

IN: Need MIC, item "Cc1nc2c([nH]1)CCCCCCCCC[C@@H](C)OC(=O)/C=C/2"
OUT: 32

====

- Tested on: Pseudomonas aeruginosa
- Protocol text: Antibacterial activity against Pseudomonas aeruginosa ATCC 27853 by broth dilution method
- Format: functional
Property: MIC; scope: individual compounds

{"columns": ["Compound", "Measured"],
 "data": [
  ["CO[C@H]1CCCCCCCCC[C@@H](C)OC(=O)C2CC2C1=O (mixture of isomers)", "> 64 µg/mL"],
  ["CC(=O)N(CCOc1ccccc1)C1CC(=O)[C@@H](OC(=O)CCC(=O)OC(C)(C)C)CCCCCCCCC[C@@H](C)OC1=O (some centres not stated)", "> 32 µg/mL"],
  ["C[C@@H]1CCCCCCCCC[C@H](O)C(=O)/C=C/C(=O)O1", "> 32 µg/mL"]
]}

IN: Find MIC (Pseudomonas aeruginosa) for the entry "CO[C@H]1CCCCCCCCC[C@@H](C)OC(=O)/C(C)=C/C1=O"
OUT: > 64 µg/mL

IN: Repeat with COC1CCCCCCCCC[C@@H](C)NC(=O)/C=C/C1=O (single isomer, unassigned; diastereomer 1)
OUT: > 64 µg/mL

IN: Consider next the compound C[C@@H]1CCCCCCCCC[C@H](O)C(=O)CC(SCC(F)(F)F)C(=O)O1 (some centres not stated) in the same way.
OUT: > 64 µg/mL

IN: Would you mind doing CO[C@H]1CCCCCCCCC[C@@H](C)OC(=O)C(Sc2ccccc2)CC1=O (some centres not stated) as well?
OUT: > 64 µg/mL

====

- Tested on: Streptococcus pneumoniae
- Protocol text: Antibacterial activity against Streptococcus pneumoniae Pen9 IV381-221 by broth microdilution method
- Type: functional
- Condition details: Streptococcus pneumoniae, Pen9 IV381-221; read-out: MIC
Measured property: MIC

Reference set (2 entries):
{"columns": ["Compound", "MIC"],
 "data": [
  ["CC(=O)N(CCOc1ccccc1)C1CC(=O)[C@@H](OC(=O)CCC(=O)OC(C)(C)C)CCCCCCCCC[C@@H](C)OC1=O (stereo partly drawn)", "> 32 µg/mL"],
  ["CO[C@H]1CCCCCCCCC[C@@H](C)OC(=O)/C(C)=C/C1=O", "> 64 µg/mL"]
]}

Query compound follows.
IN: Dear colleague, I am looking for the recorded MIC of the following compound: "CO[C@H]1CCCCCCCCC[C@@H](C)OC(=O)CCC1=O"
OUT: > 64 µg/mL

====

- Tested on: Enterococcus faecalis
- Protocol text: Antibacterial activity against Enterococcus faecalis ATCC 29212 by broth microdilution method
- Assay type: functional
- Condition details: Enterococcus faecalis, ATCC 29212; read-out: MIC
Quick reference: MIC of the listed items.

Example compounds with recorded MIC:
{"columns": ["Compound", "Subject of test", "MIC"],
 "data": [
  ["CO[C@H]1CCCCCCCCC[C@@H](C)OC(=O)C2OC2C1=O (stereo in doubt; 16b)", "Enterococcus faecalis", "> 64 µg/mL"],
  ["CC(=O)N(CCOc1ccccc1)C1CC(=O)[C@@H](OC(=O)CCC(=O)OC(C)(C)C)CCCCCCCCC[C@@H](C)OC1=O (stereo partly drawn)", "Enterococcus faecalis", "> 32 µg/mL"]
]}

IN: Would you kindly share the measured MIC for CO[C@H]1CCCCCCCCC[C@@H](C)OC(=O)C(Sc2ccccc2)CC1=O (stereo partly drawn) ?
OUT: > 64 µg/mL

====

- System: Haemophilus influenzae
- Protocol text: Antibacterial activity against efflux knock-out Haemophilus influenzae LS2 by broth microdilution method
- Assay type: functional
- Condition details: Haemophilus influenzae, LS2; read-out: MIC
Field: label. Allowed values: condition met (MIC < 2 µg/mL) or condition not met (MIC >= 2 µg/mL).

Example cases with answers are listed next.
{"columns": ["Molecule", "Classification"],
 "data": [
  ["C[C@@H]1CCCCCCCCC[C@H](O)C(=O)/C=C/C(=O)O1", "condition met"],
  ["CO[C@H]1CCCCCCCCC[C@@H](C)OC(=O)C2OC2C1=O (single isomer, unassigned; diastereomer 1)", "condition not met"],
  ["C[C@@H]1CCCCCCCCC[C@H](OC(=O)CCC(=O)OC(C)(C)C)C(=O)c2[nH]ncc2C(=O)O1", "condition not met"],
  ["C[C@@H]1CCCCCCCCC[C@H](OC(=O)CCC(=O)O)C(=O)/C=C/C(=O)O1", "condition not met"],
  ["CC(=O)N(CCOc1ccccc1)C1CC(=O)[C@@H](OC(=O)CCC(=O)OC(C)(C)C)CCCCCCCCC[C@@H](C)OC1=O (stereo partly drawn)", "condition not met"],
  ["CO[C@H]1CCCCCCCCC[C@@H](C)OC(=O)C2CC2C1=O (mixture of isomers)", "condition not met"],
  ["CO[C@H]1CCCCCCCCC[C@@H](C)OC(=O)/C(C)=C/C1=O", "condition not met"],
  ["CO[C@H]1CCCCCCCCC[C@@H](C)OC(=O)/C=C/C1=O", "condition not met"],
  ["Cc1nc2c([nH]1)CCCCCCCCC[C@@H](C)OC(=O)/C=C/2", "condition not met"],
  ["COC1CCCCCCCCC[C@@H](C)NC(=O)/C=C/C1=O (single isomer, unassigned; diastereomer 1)", "condition met"]
]}

We now examine a further molecule.
IN: Does "C[C@@H]1CCCCCCCCC[C@H](OC(=O)CCC(=O)OC(C)(C)C)C(=O)/C=C/C(=O)O1" have MIC strictly under 2 µg/mL?
OUT: condition not met

Taken from ChEMBL document CHEMBL1806376.
